meta.source: PubChem BioAssay (NCI)

Test system: ACHN renal
procedureText: NCI tumour cell line growth inhibition, 48 h
Hi there, I'd appreciate the recorded TGI for every entry that follows.

## Task Give the reported TGI for this molecule. O=C1CC[C@H](N2Cc3c(OCc4ccc(CN5CCOCC5)cc4)cccc3C2=O)C(=O)N1
## Result > 100 µM

## Task Give recorded TGI. O=C(O)CCO/N=C1/C(c2c(O)[nH]c3ccccc23)=Nc2ccccc21
## Result > 100 µM

## Task Report TGI, nothing else, for this molecule: O=C1/C=C/[C@@H](O)[C@@H]2C[C@@H](O)C[C@H]2/C=C/CCC[C@H](CCc2ccc3ncccc3c2)O1
## Result > 29.7 µM

## Task Give TGI for the following molecule: O=[P+](O)c1ccccn1
## Result > 100 µM

## Task Note TGI for the molecule shown: c1ccc2c(c1)nc1n2CSCC1
## Result > 100 µM

## Task Query TGI for CNCC/C=C1\c2cc3c(cc2-c2c1c1cc(OC)c(OC)cc1c(=O)n2C)OCO3
## Result 2.21 µM

## Task Give the value of TGI reported for the following: Cc1ccc(Nc2cc(Cl)c([N+](=O)[O-])cc2[N+](=O)[O-])cc1
## Result 16.2 µM

## Task Look up TGI of COc1cccc2c1C1(O)C2CCCCCCCCCC12OCCCO2 (stereo not given) and report it.
## Result > 100 µM

## Task Hello, please tell me recorded TGI for this one: O=C(O)c1nc2ccc(Cl)cc2[nH]c1=O
## Result > 100 µM

## Task Determine from records and report TGI for CNCCCNC(=S)Cn1cc(C)c(=O)[nH]c1=O
## Result > 74.3 µM

## Task Tell us which TGI value is on record for Cc1cc(C(=O)/C=C/c2ccc[nH]2)ccc1-n1ccc(C(F)(F)F)n1
## Result > 100 µM

## Task Give the value of TGI reported for the following: Cc1ccc(S(=O)(=O)OCC#CCOS(=O)(=O)c2ccc(C)cc2)cc1
## Result 5.94 µM

## Task Please give the documented TGI of Nc1ccc(-c2cc(C(=O)Nc3nccs3)[nH]c(=S)n2)cc1
## Result > 100 µM

## Task Note down TGI recorded for COc1ccc2c3c([nH]c(=O)c2c1C(=O)O)-c1ccccc1CC3
## Result > 100 µM

## Task Provide TGI value for the following molecule: COC(=O)c1c(C)[nH]c2c1C(=O)C(=O)c1nc(C)c(C)nc1-2
## Result 47.3 µM

## Task Report TGI, nothing else, for this molecule: COC(=O)c1cccc2c3ccccc3c3ccccc3c12
## Result > 100 µM

## Task Answer with the recorded TGI of CC(=O)c1c(SCCN2CCOCC2)n(-c2ccccc2)c(=S)n(-c2ccccc2)c1=O only.
## Result 30.1 µM

## Task Give the reported TGI for this molecule. O=S(=O)(O)c1cc(S(=O)(=O)O)c2cc(N=Nc3c(O)ccc4ccccc34)ccc2c1
## Result > 100 µM

## Task Write down TGI measured for item O=C1N2Cc3c4ccc5c3CN3C(=O)N6Cc7c(ccc(c7CN1C6(c1ccccc1)C23c1ccccc1)OCCOCCOc1cc(Br)c(Br)cc1OCCOCCO4)OCCOCCOc1cc(Br)c(Br)cc1OCCOCCO5 (stereo not given)
## Result > 100 µM

## Task Please list TGI recorded for the molecule O=C1c2c(Br)sc(Br)c2[C@@H](Cl)[C@H]1Cl
## Result 37.4 µM

## Task Item O=C(/C=C/c1ccc(OCc2ccccc2)cc1)NCc1ccc(C(=O)NCCc2c[nH]c3ccccc23)cc1 : provide TGI
## Result > 100 µM

## Task Tell me TGI reported for C/C(=N\NC(N)=S)c1ccc(C)c(C)c1
## Result > 100 µM

## Task # return recorded TGI for input c1ccc(CN2CCc3[nH]c4ccccc4c3C2)cc1
## Result 99.8 µM

## Task State its TGI: CSc1nc(Nc2ccccc2Cl)c2c(N)nn(C)c2n1
## Result 26 µM

## Task Identify measured TGI corresponding to O=[N+]([O-])C1=Cc2cc(Cl)ccc2OC1c1cccc2ccccc12 (stereo not given)
## Result 2.99 µM

## Task Given CNCCN[C@@H]1c2cc3c(cc2[C@@H](c2cc(OC)c(O)c(OC)c2)[C@H]2C(=O)OC[C@@H]21)OCO3 , respond with its TGI.
## Result 1.04 µM

## Task Let me know recorded TGI for O=C(O)C1OC1C(=O)O (stereo not given) , thanks.
## Result > 100 µM

## Task # return recorded TGI for entry CCc1cccc(C(C)C)c1NC(=O)CCl
## Result > 100 µM

## Task Recall and state the measured TGI for CCOC(=O)c1nc2ccccc2nc1NCc1ccc(OC)c(OC)c1 .
## Result > 100 µM

## Task Supply measured TGI of C/C=C/C/C=C/[C@H](C)C[C@H](O)[C@@H]1C[C@@H]2O[C@H]2/C=C/[C@@H]2OC(C)(C)O[C@H]2/C=C/C[C@H](C)CC(=O)O1 in your reply.
## Result > 100 µM

## Task Supply recorded TGI for CNC(=O)N(CCC#N)CCN(C(=O)N(C)C)c1ccccc1 here.
## Result > 100 µM

## Task In one line, give reported TGI of the entry CC(C)=Cc1cc(C)c2c3c(c(O)c(O)c(C)c13)C(C)=CC2=O .
## Result 56.2 µM

## Task Given C=C1[C@H]2O[C@H]2[C@@H](OC(C)=O)[C@@]2(C)[C@@H](OC(C)=O)C[C@@H](OC(=O)CCC)[C@@](C)(O)[C@@H]2[C@@H](OC(C)=O)[C@]2(O)[C@@H](C)C(=O)O[C@H]2[C@H]1Cl , respond with its TGI.
## Result > 100 µM

## Task Annotate the molecule O=C1/C(=C/c2ccc3c(c2)OCCO3)CCC/C1=C\c1ccc2c(c1)OCCO2 with its measured TGI.
## Result > 100 µM

## Task Write down TGI measured for item CCC/C=C\C=C\C1(NS(=O)(=O)c2ccc(C)cc2)CCC(C(C)(C)C)CC1 (stereo not given)
## Result 53.7 µM

## Task Let me know recorded TGI for [N-]=[N+]=NCCCn1c2c(c3ccc([N+](=O)[O-])cc3c1=O)C(=O)c1cc3c(cc1-2)OCO3 , thanks.
## Result 0.459 µM

## Task # return recorded TGI for entry Cc1ccc(/C=C2/N=C(N/N=C\C(O)C(O)C(O)CO)NC2=O)cc1 (stereo not given)
## Result > 100 µM

## Task Supply TGI value. Item: Cc1ccccc1NC(=O)/C=N/O
## Result > 100 µM

## Task Please indicate TGI recorded for CO[C@@H]1CCN(c2nccc(Nc3cc4c(C(C)C)ccc(N5CC(CS(C)(=O)=O)[C@H]5C)c4cn3)n2)C[C@@H]1F (stereo not given in full)
## Result 44.6 µM

## Task Retrieve TGI measured for COc1ccc(/C=C2\C[C@H]3[C@@H]4CC=C5C[C@@H](OC(C)=O)CC[C@]5(C)[C@H]4CC[C@]3(C)\C2=N\O)cc1OC and print it.
## Result > 100 µM
